Biological target: human IL-17AA (Homo sapiens)
Sequence (Q16552 24-155): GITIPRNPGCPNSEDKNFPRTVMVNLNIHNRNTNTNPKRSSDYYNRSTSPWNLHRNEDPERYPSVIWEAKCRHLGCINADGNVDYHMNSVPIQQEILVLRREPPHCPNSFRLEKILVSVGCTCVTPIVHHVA
Sequence (Q16552 24-155): as above
Assay: IL-8 release assay in human epithelial keratinocytes adult (HEKa)
Details: 3 ng/ml human IL-17AA + 10 ng/ml human TNFalpha, 68-72 h, IL-8 by HTRF, read-out: Rel EC50 L-8 release assay
pEC50: −log10 of the molar value.
Recorded pEC50 values for a group of molecules are listed next.

# molecule, experimental value
data = [
    ("Cc1n[nH]c(C)c1-c1ccc(NC(=O)[C@@H](NC(=O)c2ccnn2C)[C@@H]2CCCc3ccc(-c4ccc5c(c4)CCN(C)C5)cc32)cc1", "> 7.00"),
]

Exam item: Please look up its pEC50: Cn1cncc1-c1ccc(NC(=O)C(Cc2cc(-c3ccnc(N4CCC4)c3)ccc2Cl)NC(=O)c2ccnn2C)cc1 (stereo not shown)
Marked response: 6.00 to 7.00

Exam item: Please look up its pEC50: Cc1nocc1C(=O)N[C@@H](Cc1cc(-c2ccnc(C(=O)C3CC3)c2)ccc1Cl)C(=O)Nc1ccc(-c2nncn2C)cc1
Marked response: < 6.00

Exam item: Please look up its pEC50: Cn1cncc1-c1ccc(NC(=O)C(Cc2cc(-c3ccnc(N4CCC[C@@H]4CO)c3)ccc2Cl)NC(=O)c2ccnn2C)cc1 (stereo partly shown)
Marked response: 6.00 to 7.00

Exam item: Please look up its pEC50: Cn1cncc1-c1ccc(NC(=O)C(Cc2cc(-c3ccnc(N4CC[C@@H](O)C4)c3)ccc2Cl)NC(=O)c2ccnn2C)cc1 (stereo partly shown)
Marked response: 6.00 to 7.00

Exam item: Please look up its pEC50: Cc1n[nH]c(C)c1-c1ccc(NC(=O)[C@H](NC(=O)C2(F)CC2)[C@H](C)c2cccc(-c3ccnc(N4C[C@@H]5C[C@H]4CO5)c3)c2)cc1
Marked response: 6.00 to 7.00
